Tested on: SK-MEL-2 melanoma
protocolDescription: NCI-60 one-dose screen, 48 h
protocolConditions: 10 µM unless noted
Compounds without any hit were thinned out: in the full panel of roughly 83,000, 20% have a hit. The source made the active and inactive calls. Rule for the calls: active = growth percent below 10; inactive = the rest.
The reply should name one outcome from T for active, F for inactive

Query: Recorded test call requested for N#C/C(C(=O)c1ccccc1)=C1/C(=O)Nc2ccc(F)cc21
Response: F

Query: Recorded test call requested for CC(C)C1=NOC(=O)C1=Cc1cn(-c2ccccc2)nc1-c1ccccc1
Response: F

Query: Recorded test call requested for CO[C@H]1CC[C@@]2(C)C(=CC[C@H]3[C@@H]4C[C@H](O)C[C@@]4(C)CC[C@@H]32)C1
Response: F

Query: Recorded test call requested for CC(C)[C@H]1CCC2=C3CC[C@]45OC(=O)[C@@]6(CCC(C)(C)C[C@H]64)CC[C@@]5(C)[C@]3(C)CC[C@@]21C
Response: F

Query: Recorded test call requested for COc1cc(/C=C/C(=O)/C=C/c2ccc(-n3ccnc3)cc2)ccc1O
Response: F

Query: Recorded test call requested for Nc1ccc2c(c1)Cc1cc(NC(=O)C(F)(F)F)ccc1-2
Response: F

Query: Recorded test call requested for C=C(C)[C@@H]1CC[C@]2(C(N)=O)CC[C@]3(C)[C@H](CC[C@@H]4[C@@]5(C)C/C(=C/c6cccnc6)[C@H](O)C(C)(C)[C@@H]5CC[C@]43C)[C@@H]12
Response: T

Query: Recorded test call requested for CC(=O)Nc1ccc2nc3ccc(NC(C)=O)cc3[n+](-c3ccccc3)c2c1
Response: F

Query: Recorded test call requested for CCN(CC)CCCOc1ccc2c(c1)O/C(=C\c1cccc(OC)c1)C2=O
Response: F

Query: Recorded test call requested for C=C(C)[C@@H]1CC[C@]2(C(N)=O)CC[C@]3(C)[C@H](CC[C@@H]4[C@@]5(C)CC[C@H](O)C(C)(C)[C@@H]5CC[C@]43C)[C@@H]12
Response: T

Query: Recorded test call requested for O=C(NNc1ccc(-c2ccccc2)nn1)c1ccc(F)cc1
Response: F

Query: Recorded test call requested for N#CCCc1c[nH]c2ccccc12
Response: F

Query: Recorded test call requested for N/C(=N\c1nc2ccccc2[nH]1)NC(=O)Cc1cccc2ccccc12
Response: F

Query: Recorded test call requested for O=[N+]([O-])c1cc(CCl)ccc1OCCBr
Response: F

Query: Recorded test call requested for CCN1c2ccccc2C(Cl)(c2ccc(N(C)C)cc2)c2ccccc21
Response: F

Query: Recorded test call requested for COc1ccc(-c2ccc(NNC(=O)c3ccc(F)cc3)nn2)cc1OC
Response: F

Query: Recorded test call requested for Nc1nc(Nc2ccccc2)c2ncn(Cc3cc4c(cc3Br)OCO4)c2n1
Response: F

Query: Recorded test call requested for O=C1/C(=C/c2ccc(OCc3ccccc3)cc2)Oc2cc(OCCN3CCCCC3)ccc21
Response: F

Query: Recorded test call requested for CCN(CC)c1ccc2cc(C(Nc3ccc(C)cc3)c3nnnn3C(C)(C)C)c(=O)oc2c1 (stereo not given)
Response: F

Query: Recorded test call requested for CCOC(CNC(=O)c1cccc([N+](=O)[O-])c1)OCC
Response: F

###

System: TK-10 renal
protocolDescription: NCI-60 one-dose screen, 48 h (100 = growth as untreated, 0 = no growth, -100 = all killed)
protocolConditions: 10 µM unless noted
This is part of a sample that, as a whole, favours compounds with a hit. Of some 83,000 tested, about 20% had one in any assay. Calls of active or inactive are those of the source. The calls were made as follows: active = growth percent below 10; inactive = the rest.
experimentalEndpoint: growth

Query: Return reported growth; argument: CC(C)OC(=O)Nc1cc(F)ccc1F
Response: 97.7% (inactive)

Query: Return reported growth; argument: COc1ccc2c(c1)C(C)Cc1c(Cl)ncnc1N2C (stereo unspecified)
Response: 13% (inactive)

Query: Return reported growth; argument: COc1ccc(C(=O)CSc2nnc(-c3cc(-c4ccccc4)nc4ccccc34)o2)cc1
Response: 116% (inactive)

Query: Return reported growth; argument: COc1ccc(-c2c(C)nn3c(NCCN4CCOCC4)cc(C)nc23)cc1OC
Response: 102% (inactive)

Query: Return reported growth; argument: Cc1ccc(Cn2c(O)c(N=NC(=O)c3ccc(S(N)(=O)=O)cc3)c3ccccc32)cc1
Response: 106% (inactive)

Query: Return reported growth; argument: Cc1ccc2c(n1)C(=O)C(Cl)=C(Nc1ccc(N3CCN(C)CC3)cc1)C2=O
Response: 100% (inactive)

###

System: 786-0 renal
protocolDescription: NCI-60 one-dose screen, 48 h
protocolConditions: 10 µM unless noted
This is part of a sample that, as a whole, favours compounds with a hit. Of some 83,000 tested, about 20% had one in any assay. Calls of active or inactive are those of the source. The calls were made as follows: active = growth percent below 10; inactive = the rest.
The reply should name one outcome from active, inactive

Query: Recorded test call requested for COc1cc2c(O)n(CCCN3CCOCC3)c3c4cnc5cccc(c(=O)c3c2cc1OC)c54
Response: inactive

Query: Recorded test call requested for Cn1c(=O)c(C#N)c(-c2ccco2)n2c(S(=O)(=O)Cc3ccccc3)nnc12
Response: inactive

Query: Recorded test call requested for C=CCc1nc2ccccc2s1
Response: inactive

Query: Recorded test call requested for O=C(N=c1n(-c2ccccc2)nc2n1CCN2C1=NCCN1)c1ccc(Cl)cc1
Response: inactive

Query: Recorded test call requested for COC(=O)[C@H](CC(C)C)NC(=O)NC(=O)NC(=O)CI
Response: active

Query: Recorded test call requested for Cc1ccc(S(=O)(=O)Nc2ccccc2)cc1N
Response: inactive

Query: Recorded test call requested for CCCOc1ccc(-c2nc(-c3ccc(N)cc3)cs2)cc1
Response: inactive

Query: Recorded test call requested for Cc1nc(Cl)cc(N(c2cc(Cl)nc(C)n2)c2ncc(C(=O)Nc3c(C)cccc3Cl)s2)n1
Response: inactive

Query: Recorded test call requested for O=C1/C(=C/c2cccc(OCc3ccccc3)c2)Oc2cc(OCCN3CCCCC3)ccc21
Response: inactive

Query: Recorded test call requested for C[C@H]1[C@H](C)CC[C@]2(C(=O)O)CC[C@]3(C)C(=CC[C@@H]4[C@@]5(C)C/C(=C/c6cccnc6)[C@H](O)C(C)(C)[C@@H]5CC[C@]43C)[C@H]12
Response: active

Query: Recorded test call requested for C=C(C)C1CCC2(C(=O)O)CCC3(C)C(CCC4C5(C)CCC(OC(=O)NCc6ccccc6)C(C)(C)C5CCC43C)C12 (stereo not given)
Response: inactive

Query: Recorded test call requested for c1ccc(-c2nc(N3CCCNCC3)c3nc(-c4ccccc4)oc3n2)cc1
Response: inactive

Query: Recorded test call requested for CSc1cccc([N+](=O)[O-])c1
Response: inactive

Query: Recorded test call requested for CC(C)C1=NOC(=O)C1=Cc1cn(-c2ccco2)nc1-c1ccccc1
Response: inactive

Query: Recorded test call requested for O=C1Nc2ccccc2/C1=C/C(=O)c1ccc(N2CCCC2)cc1
Response: inactive

Query: Recorded test call requested for O=C(N[C@@H]1CCCc2ccccc21)[C@H](CCC(=O)N1CCN(C2CCCCC2)CC1)N1C(=O)[C@@H](N2C(=O)OC[C@@H]2c2ccccc2)[C@H]1/C=C/c1ccccc1
Response: inactive

Query: Recorded test call requested for N#Cc1c(Cl)nc(SCC2CO2)nc1-c1ccccc1 (stereo not given)
Response: inactive

Query: Recorded test call requested for CCCCCn1c(C)cc(/C=C\c2ccc3cc(C)ccc3[n+]2C)c1C
Response: active

Query: Recorded test call requested for C=C(C)[C@@H]1CC[C@]2(C)[C@H](C(=O)C=C3[C@@H]4C[C@](C)(C(=O)N5CCN(C)CC5)CC[C@]4(C)CC[C@]32C)[C@@]1(C)CCC#N
Response: active

Query: Recorded test call requested for Cc1ncc(C(=O)Nc2ccc(CN3CCN(C)CC3)c(C(F)(F)F)c2)cc1C#Cc1c(N)ncc2ccc(C#N)cc12
Response: active

Query: Recorded test call requested for Cc1cc(C)c(O)c(CNCCCCCCNCc2cc(C)cc(C)c2O)c1
Response: inactive

Query: Recorded test call requested for Cc1ccc2c(c1)C(C)Cc1c(Cl)ncnc1N2C (stereo not given)
Response: active

Query: Recorded test call requested for COc1c(B(O)O)cccc1-c1nc2ccc3[nH]ncc3c2c2c1CCC2
Response: inactive

Query: Recorded test call requested for CC1(C)C(=NO)C(C)(C)C1=NO
Response: inactive

Query: Recorded test call requested for O=C(CCCSc1nc(-c2ccccc2)cc(-c2ccccc2)n1)NO
Response: active

Query: Recorded test call requested for COc1ccc(-c2cc(-c3ccccc3)nc(SCCCCCC(=O)NO)n2)cc1
Response: inactive

Query: Recorded test call requested for Clc1ccccc1/C=N\Nc1ccccn1
Response: inactive

Query: Recorded test call requested for COc1ccc(C(=O)/C=C/c2ccccn2)c(O)c1
Response: inactive

Query: Recorded test call requested for COc1ccc2nc3ccccc3c(NCCNCCO)c2c1
Response: active

Query: Recorded test call requested for CC1(C(=O)O)CCC(N)(C(=O)O)C1(C)C (stereo not given)
Response: inactive

Query: Recorded test call requested for CC(C)=CCC[C@](C)(O)[C@H]1CC[C@]2(C)[C@@H]1CC[C@@H]1[C@@]3(C)CC[C@H](OC(=O)CCC(=O)O)C(C)(C)[C@@H]3CC[C@]12C
Response: inactive

Query: Recorded test call requested for CC(C)CCSC1=CC(=O)c2ccccc2C1=O
Response: inactive

Query: Recorded test call requested for Cn1cc(-c2noc(C(=O)c3cn(C)c4ncc(Br)cc34)n2)c2ccccc21
Response: inactive

Query: Recorded test call requested for COc1ccc(CC(C#N)c2ccc(Cl)cc2)cc1 (stereo not given)
Response: inactive

Query: Recorded test call requested for COc1cc(-c2nc(SCCC(C)C)nc(Nc3ccc(S(N)(=O)=O)cc3)c2C#N)cc(OC)c1OC
Response: inactive

Query: Recorded test call requested for CC(C)[N+](C)(C)CC(O)COc1cccc2ccccc12 (stereo not given)
Response: inactive

Query: Recorded test call requested for C[C@H]1[C@H](C)CC[C@]2(COC(=O)CCC(=O)O)CC[C@]3(C)C(=CC[C@@H]4[C@@]5(C)CCCNC(C)(C)[C@@H]5CC[C@]43C)[C@H]12
Response: inactive

Query: Recorded test call requested for O=C(N/N=C/c1ccc([N+](=O)[O-])cc1)c1ccc(Br)o1
Response: inactive

Query: Recorded test call requested for CC(C)CSc1ncnc2nc[nH]c12
Response: inactive

Query: Recorded test call requested for CCOC(=O)c1nn(C2CCCCO2)c2ccc(NC(=O)Cn3nnc4ccccc43)cc12 (stereo not given)
Response: inactive

Origin of measurements: PubChem BioAssay (NCI)
